Experiment: Human Hepatocyte Stability (Test D)
Type: in vitro ADME
Conditions: human, cryopreserved pooled human hepatocytes (LiverPool 10-Donor), geometric mean if run multiple times
parameter_measured: hepatocyte CLint at 1 µM (µL/min/1e6 cells)

>>> print(df.to_string())
                                   compound              unit  result_value
0  COc1cc(F)c(O[C@H]2CC[C@@](C)(C(=O)O)CC2)cc1C(=O)N[C@@H]1[C@H]2CC[C@H](C2)[C@@H]1C(=O)NCC1(C)CCCCC1  µL/min/1e6 cells            17

a = COc1cc(F)c(O[C@H]2CC[C@@](C)(C(=O)O)CC2)cc1C(=O)N[C@@H]1CCC[C@]1(F)C(=O)Nc1cccc(S(=O)(=O)C(F)(F)F)c1
b = CCC(C)(C)CNC(=O)[C@H]1[C@@H]2CC[C@@H](C2)[C@H]1NC(=O)c1cc(O[C@H]2CC[C@@](C)(C(=O)O)CC2)c(F)cc1OC
c = COc1cc(F)c(-c2ccc(C(=O)O)cc2)cc1C(=O)N[C@H]1[C@@H](C(=O)Nc2cc(F)cc(C(F)(F)F)c2)[C@@H]2C=C[C@H]1C2 (racemic)
d = COc1cc(C#N)c(O[C@H]2CC[C@@](C)(C(=O)O)CC2)cc1C(=O)N[C@@H]1[C@H]2CC[C@H](C2)[C@@H]1C(=O)NCC(C)(C)C(F)(F)F
*Q* Arrange the 4 compounds from largest to smallest hepatocyte CLint at 1 µM. // format: requested-order list of labels
*A* c, a, b, d
(c: 14 µL/min/1e6 cells, a: 8 µL/min/1e6 cells, b: 4.8 µL/min/1e6 cells, d: 3.3 µL/min/1e6 cells)

---

Assay: Human Liver Microsomal Stability (Test C)
Format: in vitro ADME
Conditions: human, liver microsomes
parameter_measured: microsomal CLint (µL/min/mg)

Known microsomal CLint results, listed for orientation:
compound_structure	microsomal CLint, µL/min/mg
COc1cc(F)c(-c2ccc(C[C@H](C(=O)O)N(C)C)cc2)cc1C(=O)N[C@@H]1[C@H]2CC[C@H](C2)[C@@H]1C(=O)Nc1cccc(S(=O)(=O)C(F)(F)F)c1	24
COc1cc(F)c(O[C@H]2CC[C@@H](C(=O)O)CC2)cc1C(=O)N[C@@H]1[C@@H]2C[C@@H]([C@H]3OCO[C@@H]23)[C@@H]1C(=O)Nc1cccc(S(=O)(=O)C(F)(F)F)c1	7.5
COc1cc(C#N)c(O[C@H]2CC[C@@](C)(C(=O)O)CC2)cc1C(=O)N[C@@H]1[C@H]2CC[C@H](C2)[C@@H]1C(=O)NCC1(C)CC1	8.7
COc1cc(F)c(-c2ccc(/C=C/C(=O)O)nc2)cc1C(=O)N[C@@H]1[C@H]2CC[C@H](C2)[C@@H]1C(=O)Nc1cccc(S(=O)(=O)C(F)(F)F)c1	69
COc1cc(F)c(-c2ccc(C(N)=O)cc2)cc1C(=O)N[C@H]1[C@@H](C(=O)Nc2cccc(S(=O)(=O)C(F)(F)F)c2)[C@@H]2C=C[C@H]1C2	120

1 = COc1cc(F)c(O[C@H]2CC[C@@](C)(C(=O)O)CC2)cc1C(=O)N[C@@H]1CCC[C@@H]1C(=O)N[C@H](C)C(C)(C)C
2 = COc1cc(F)c(O[C@H]2CC[C@@H](C(=O)O)CC2)cc1C(=O)N[C@@H]1[C@H]2CC[C@H](C2)[C@@H]1C(=O)Nc1ccc(C(F)F)cc1
*Q* From the recorded data, which exceeds the other in microsomal CLint: 1 or 2 ? Choose, then provide that item's label.
*A* 2

I = COc1cc(F)c(O[C@H]2CC[C@@](C)(C(=O)O)CC2)cc1C(=O)N[C@@H]1CCC[C@@H]1C(=O)NCC1(C)CC1
II = CCC(C)(C)CNC(=O)[C@H]1CCC[C@H]1NC(=O)c1cc(O[C@H]2CC[C@@](C)(C(=O)O)CC2)c(F)cc1OC
*Q* Of I and II , which carries the smaller reported microsomal CLint figure? Bench note: the answer is the label of the chosen record.
*A* I
(I: 4.4 µL/min/mg, II: 6.5 µL/min/mg)
